Test: Cytotoxicity against HUVEC
Type: cell-based
Conditions: human, HUVEC cells; read-out: ED50 (the source's name)
observation.type: CC50 (µg/mL)
Give a bare numeral; the unit µg/mL is implied.

Query CC50 for COc1cc([C@@H]2c3cc(O)c(OC)cc3C[C@@H](C)[C@H]2C)ccc1O
14.7

Provide one value: measured CC50 of CCCC(=O)c1c(O)c(C)c(OC)c(Cc2c(O)c(C(=O)CCC)c(O)c(C)c2OC)c1O
6.1

Respond only with CC50 recorded for CC1=CC[C@]2(C(=O)O)CC[C@]3(C)[C@H](CC[C@@H]4[C@@]5(C)CC[C@H](O)C(C)(C)[C@@H]5CC[C@]43C)[C@H]2[C@@H]1C
10.4
